B1: CPEB3 Ribozyme (parent)
chain: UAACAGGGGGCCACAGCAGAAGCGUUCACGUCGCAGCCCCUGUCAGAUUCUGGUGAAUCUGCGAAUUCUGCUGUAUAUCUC

Variants of: B1
Test: self-cleavage, relative activity (ratio to wild type); higher = more cleavage; in vitro, sequencing
# label = MET if self-cleavage >= 0.3 else NOT MET

Req: Hi, just wondering whether A15G C38A shows self-cleavage of 0.3 or higher.
Resp: MET
